- experimental_details: in vivo
- run_parameters: male, beagle, dog, po, 5 mg/kg, Plasma concentration
Where a name gives a salt, the structure may show the parent alone.
test_readout: concentration at 5 h (ng/mL)
Form entry: value (ng/mL) — number only.

Given O=C(O)c1ccc(-c2ccc(/C=C3\SC(=S)N(Cc4ccccc4)C3=O)o2)cc1 [LA1 choline salt] , state its recorded concentration at 5 h.
370

* * *

- experimental_details: in vivo
- run_parameters: male, beagle, dog, iv, 0.5 mg/kg, Plasma concentration
test_readout: concentration at 1 h (ng/mL)
Form entry: value (ng/mL) — number only.

Given O=C(O)c1ccc(-c2ccc(/C=C3\SC(=S)N(Cc4ccccc4)C3=O)o2)cc1 , state its recorded concentration at 1 h.
405

* * *

- run_parameters: male, Sprague-Dawley, rat, in vivo, iv, 1 mg/kg
Structures can show the parent of a compound that is named as a salt.
test_readout: Tlast (h)
Form entry: value (h) — number only.

Recorded Tlast, per entry:
Given O=C(O)c1ccc(-c2ccc(/C=C3\SC(=S)N(Cc4ccccc4)C3=O)o2)cc1 [LA1 meglumine salt] , state its recorded Tlast.
8.00

Given O=C(O)c1ccc(-c2ccc(/C=C3\SC(=S)N(Cc4ccccc4)C3=O)o2)cc1 [LA1 choline salt] , state its recorded Tlast.
7.00

Given O=C(O)c1ccc(-c2ccc(/C=C3\SC(=S)N(Cc4ccccc4)C3=O)o2)cc1 [LA1 (micronized)] , state its recorded Tlast.
12.0

New cases:
Given O=C(O)c1ccc(-c2ccc(/C=C3\SC(=S)N(Cc4ccccc4)C3=O)o2)cc1 [LA1] , state its recorded Tlast.
20.0

* * *

- experimental_details: in vivo
- run_parameters: male, Sprague-Dawley, rat, iv, 1 mg/kg, AUC0-t
test_readout: AUC0-t (ng·h/mL)
Form entry: value (ng·h/mL) — number only.

Given O=C(O)c1ccc(-c2ccc(/C=C3\SC(=S)N(Cc4ccccc4)C3=O)o2)cc1 , state its recorded AUC0-t.
903

* * *

- experimental_details: in vivo
- run_parameters: male, Sprague-Dawley, rat, ip, 2 mg/kg, AUC in mM*hr
test_readout: AUC

Given O=C(O)c1ccc(-c2ccc(/C=C3\SC(=S)N(Cc4ccccc4)C3=O)o2)cc1 , state its recorded AUC.
3.5 µM·h

* * *

- experimental_details: in vivo
- run_parameters: male, Beagle, dog, po, 5 mg/kg, Mean conc.
Where a name gives a salt, the structure may show the parent alone.
test_readout: concentration at 2 h (ng/mL)
Form entry: value (ng/mL) — number only.

Given O=C(O)c1ccc(-c2ccc(/C=C3\SC(=S)N(Cc4ccccc4)C3=O)o2)cc1 [LA1 choline salt] , state its recorded concentration at 2 h.
1520

* * *

- experimental_details: in vivo
- run_parameters: male, beagle, dog, po, 0.5 mg/kg, Plasma concentration
test_readout: concentration at 6 h
Answer format: value, then unit.

Given O=C(O)c1ccc(-c2ccc(/C=C3\SC(=S)N(Cc4ccccc4)C3=O)o2)cc1 , state its recorded concentration at 6 h.
211 ng/mL

* * *

- experimental_details: in vivo
- run_parameters: male, Sprague-Dawley, rat, iv, 1 mg/kg, Rat Cl (ml/min/kg)
test_readout: clearance (mL/min/kg)
Form entry: value (mL/min/kg) — number only.

Given O=C(O)c1ccc(-c2ccc(/C=C3\SC(=S)N(Cc4ccccc4)C3=O)o2)cc1 , state its recorded clearance.
19.7

* * *

- experimental_details: in vivo
- run_parameters: male, beagle, dog, iv, 0.5 mg/kg, Mean conc.
Counter-ions that a name gives are not always drawn.
test_readout: concentration at 8 h (ng/mL)
Form entry: value (ng/mL) — number only.

Given O=C(O)c1ccc(-c2ccc(/C=C3\SC(=S)N(Cc4ccccc4)C3=O)o2)cc1 [LA1 choline salt] , state its recorded concentration at 8 h.
44.1

* * *

- experimental_details: in vivo
- run_parameters: male, Sprague-Dawley, rat, iv, 1 mg/kg, AUC0-∞
test_readout: AUC(0-inf) (ng·h/mL)
Form entry: value (ng·h/mL) — number only.

Given O=C(O)c1ccc(-c2ccc(/C=C3\SC(=S)N(Cc4ccccc4)C3=O)o2)cc1 [LA1] , state its recorded AUC(0-inf).
918

* * *

- experimental_details: Solubility estimation by aliquot addition and temperature cycling
- Type: physicochemical
- run_parameters: organic solvent or mixture, thermodynamic from solid; 20° C.; acetonitrile; read-out: Approx. solubility
test_readout: solubility

Given O=C(O)c1ccc(-c2ccc(/C=C3\SC(=S)N(Cc4ccccc4)C3=O)o2)cc1 , state its recorded solubility.
< 10000 µg/mL

* * *

- experimental_details: Solubility estimation by aliquot addition and temperature cycling
- Type: physicochemical
- run_parameters: organic solvent or mixture, thermodynamic from solid; 20° C.; DMF:THF (1:1); read-out: Approx. solubility
test_readout: solubility

Given O=C(O)c1ccc(-c2ccc(/C=C3\SC(=S)N(Cc4ccccc4)C3=O)o2)cc1 [LA1] , state its recorded solubility.
< 7000 µg/mL

* * *

- experimental_details: in vivo
- run_parameters: C57BL/6, mouse, exposure in blood at end of study
test_readout: concentration at 0.5 h (ng/mL)
Form entry: value (ng/mL) — number only.

Given O=C(O)c1ccc(-c2ccc(/C=C3\SC(=S)N(Cc4ccccc4)C3=O)o2)cc1 , state its recorded concentration at 0.5 h.
383

* * *

- experimental_details: Solubility estimation by aliquot addition and temperature cycling
- Type: physicochemical
- run_parameters: organic solvent or mixture, thermodynamic from solid; 20° C.; hexafluoroisopropanol; read-out: Approx. solubility
test_readout: solubility

Given O=C(O)c1ccc(-c2ccc(/C=C3\SC(=S)N(Cc4ccccc4)C3=O)o2)cc1 , state its recorded solubility.
< 10000 µg/mL

* * *

- experimental_details: in vivo
- run_parameters: male, Beagle, dog, po, 5 mg/kg, Mean conc.
- Procedure: Test system: Healthy Beagle dog weighing 10-12 kg (age 10 months), males were used for the study. Crossover design was adopted for the experiments wherein 03 dogs were used in the study for oral and intravenous administration. […] Formulation and drug administration: 251.02 mg of test item was transferred in to a clean mortar. […] A small quantity of 0.5% (w/v) methylcellulose in water was added and the mixture was triturated. […]
Structures can show the parent of a compound that is named as a salt.
test_readout: concentration at 5 h (ng/mL)
Form entry: value (ng/mL) — number only.

Given O=C(O)c1ccc(-c2ccc(/C=C3\SC(=S)N(Cc4ccccc4)C3=O)o2)cc1 [LA1 choline salt] , state its recorded concentration at 5 h.
414

* * *

- experimental_details: in vivo
- run_parameters: male, beagle, dog, po, 3 mg/kg
- Procedure: The PO (2 mg/kg) dose solution of micronized LA1 was prepared in 0.1% Tween-80 0.5% (w/v) and methyl cellulose in water. The objective of the study was to investigate the preclinical pharmacokinetic profile of LA1 (micronized powder) in Beagle dog. […]
test_readout: Tmax (h)
Form entry: value (h) — number only.

Given O=C(O)c1ccc(-c2ccc(/C=C3\SC(=S)N(Cc4ccccc4)C3=O)o2)cc1 , state its recorded Tmax.
4

* * *

- experimental_details: in vivo
- run_parameters: male, beagle, dog, po, 5 mg/kg, Plasma concentration
- Method: Test system: Healthy Beagle dog weighing 10-12 kg (age 10 months), males were used for the study. Crossover design was adopted for the experiments wherein 03 dogs were used in the study for oral and intravenous administration. […] Formulation and drug administration: 251.02 mg of test item was transferred in to a clean mortar. […] A small quantity of 0.5% (w/v) methylcellulose in water was added and the mixture was triturated. […]
Counter-ions that a name gives are not always drawn.
test_readout: concentration at 0.5 h

Given O=C(O)c1ccc(-c2ccc(/C=C3\SC(=S)N(Cc4ccccc4)C3=O)o2)cc1 [LA1 choline salt] , state its recorded concentration at 0.5 h.
999 ng/mL

* * *

- experimental_details: in vivo
- run_parameters: male, beagle, dog, po, 5 mg/kg, Plasma concentration
Structures can show the parent of a compound that is named as a salt.
test_readout: concentration at 1 h (ng/mL)
Form entry: value (ng/mL) — number only.

Given O=C(O)c1ccc(-c2ccc(/C=C3\SC(=S)N(Cc4ccccc4)C3=O)o2)cc1 [LA1 choline salt] , state its recorded concentration at 1 h.
1310

* * *

- experimental_details: in vivo
- run_parameters: male, beagle, dog, po, 2 mg/kg
test_readout: Tmax (h)
Form entry: value (h) — number only.

Given O=C(O)c1ccc(-c2ccc(/C=C3\SC(=S)N(Cc4ccccc4)C3=O)o2)cc1 , state its recorded Tmax.
4

* * *

- run_parameters: male, Sprague-Dawley, rat, in vivo
Where a name gives a salt, the structure may show the parent alone.
test_readout: Vss (L/kg)
Form entry: value (L/kg) — number only.

Given O=C(O)c1ccc(-c2ccc(/C=C3\SC(=S)N(Cc4ccccc4)C3=O)o2)cc1 [LA1 choline salt] , state its recorded Vss.
0.73

Given O=C(O)c1ccc(-c2ccc(/C=C3\SC(=S)N(Cc4ccccc4)C3=O)o2)cc1 [LA1] , state its recorded Vss.
4.19

Given O=C(O)c1ccc(-c2ccc(/C=C3\SC(=S)N(Cc4ccccc4)C3=O)o2)cc1 [LA1 meglumine salt] , state its recorded Vss.
0.74

Lab note: next compound to report on.
Given O=C(O)c1ccc(-c2ccc(/C=C3\SC(=S)N(Cc4ccccc4)C3=O)o2)cc1 [LA1 (micronized)] , state its recorded Vss.
2.14
